Target: T1, rhEphA5 antigen (Homo sapiens, UniProt P54756)
T1 construct: purchased R and D systems 3036-A5
Assay: ka (1/Ms)
# ka per entry

These solved cases illustrate the format of a correct answer.
QUERY: Entry under review: VH3/VK5: humanized anti-EphA5 antibody, VH SEQ ID NO:4, VL SEQ ID NO:13 (antibody, V domains shown) VH: EVQLVESGGGLVQPGGSLKLSCAASGFTFSTFGIHWVRQAPGKGLEWVAYISGASTTIYYADTVKGRFTISRDNSKNTLYLQMNSLRSEDTAMYYCARYGTSFPYGLDYWGQGTLVTVSS VL: DIVMTQSPDSLAVSLGERATINCKSSQSVDYDGDSYMNWYQQKPGKAPKLLIYGASNLESGIPDRFSGSGSGTDFTLTISRLEPEDAAVYYCQQSNEDPFTFGQGTKLEIK . Reported ka?
RESULT: 1.29e+06 M⁻¹ s⁻¹

QUERY: Entry under review: VH3/VK1: humanized anti-EphA5 antibody, VH SEQ ID NO:4, VL SEQ ID NO:9 (antibody, V domains shown) VH: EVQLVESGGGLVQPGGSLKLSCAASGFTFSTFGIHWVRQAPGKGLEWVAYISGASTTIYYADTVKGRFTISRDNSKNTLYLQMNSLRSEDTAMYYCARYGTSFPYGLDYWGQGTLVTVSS VL: DIVMTQSPGSLAVSLGERATINCKASQSVDYDGDSYMNWYQQKPGKAPKLLIYGASNLESGIPDRFSGSGSGTDFTLTISRLEEEDAASYYCQQSNEDPFTFGQGTKLEIK . Reported ka?
RESULT: 1.39e+06 M⁻¹ s⁻¹

Now consider a different molecule.
QUERY: Entry under review: VH2/VK2: humanized anti-EphA5 antibody, VH SEQ ID NO:3, VL SEQ ID NO:10 (antibody, V domains shown) VH: EVTLVESGGGLVQPGGSLKLSCAASGFTFSTFGIHWVRQAPGKGLEWVAYISGASTTIYYADTVKGRFTISRDNSKNTLYLQMNSLRSEDTAMYYCARYGTSFPYGLDYWGQGTLVTVSS VL: DIVMTQSPDSLAVSLGERATINCKASQSVDYDGDSYMNWYQQKPGKAPKLLIYGASNLESGIPDRFSGSGSGTDFTLTISRLEPEDAASYYCQQSNEDPFTFGQGTKLEIK . Reported ka?
RESULT: 1.3e+06 M⁻¹ s⁻¹
